read-out: Interleukin-8 (IL8), CXCL8 (gene 3576); experiment: BSK_3C_IL8: BioMAP Diversity Plus: 3C Assay for Interleukin-8 (IL8) Biomarker Activity (AID 2283020); conditions: primary human endothelial cells (HUVEC); actives raise or lower the signal
Active and inactive are the calls of the source. Rule for the calls: active = hit-call score of the fitted dose curve at least 0.9, where 1 is the maximum; inactive = score below 0.9.
I would appreciate it if you answered using one of these outcomes: TRUE = active, FALSE = inactive

Q) Kindly provide the recorded test outcome for the following molecule: "COC(=O)N(OC)c1ccccc1COc1ccn(-c2ccc(Cl)cc2)n1"
A) TRUE

Q) Kindly provide the recorded test outcome for the following molecule: "Cc1ccc(-c2c(Cl)nc(C#N)n2S(=O)(=O)N(C)C)cc1"
A) TRUE

Q) Kindly provide the recorded test outcome for the following molecule: "N#Cc1cc(Br)c(O)c(Br)c1"
A) FALSE

Q) Kindly provide the recorded test outcome for the following molecule: "CCc1nn(C)c(C(=O)NCc2ccc(C(C)(C)C)cc2)c1Cl"
A) TRUE

Q) Kindly provide the recorded test outcome for the following molecule: "CCCN(CCC)c1c([N+](=O)[O-])cc(S(N)(=O)=O)cc1[N+](=O)[O-]"
A) TRUE

Q) Kindly provide the recorded test outcome for the following molecule: C=CC1(C)OC(=O)N(c2cc(Cl)cc(Cl)c2)C1=O (configuration not stated)
A) FALSE

Q) Kindly provide the recorded test outcome for the following molecule: "CC(C)Oc1cc(-n2nc(C(C)(C)C)oc2=O)c(Cl)cc1Cl"
A) TRUE

Q) Kindly provide the recorded test outcome for the following molecule: "CC1=C(C(=O)Nc2ccccc2)SCCO1"
A) FALSE

Q) Kindly provide the recorded test outcome for the following molecule: CCCC1COC(Cn2cncn2)(c2ccc(Cl)cc2Cl)O1 (configuration not stated)
A) FALSE

Q) Kindly provide the recorded test outcome for the following molecule: C#CCOS(=O)OC1CCCCC1Oc1ccc(C(C)(C)C)cc1 (configuration not stated)
A) TRUE

Q) Kindly provide the recorded test outcome for the following molecule: Cc1c(F)c(F)c(COC(=O)C2C(/C=C(\Cl)C(F)(F)F)C2(C)C)c(F)c1F (configuration not stated)
A) FALSE

Q) Kindly provide the recorded test outcome for the following molecule: "COc1ccc(C(c2ccc(OC)cc2)C(Cl)(Cl)Cl)cc1"
A) TRUE

Q) Kindly provide the recorded test outcome for the following molecule: "CNC(=S)S"
A) FALSE

Q) Kindly provide the recorded test outcome for the following molecule: N#CC(CCc1ccc(Cl)cc1)(Cn1cncn1)c1ccccc1 (configuration not stated)
A) FALSE

Q) Kindly provide the recorded test outcome for the following molecule: COC(=O)C(C)Oc1ccc(Oc2ccc(Cl)cc2Cl)cc1 (configuration not stated)
A) FALSE

Q) Kindly provide the recorded test outcome for the following molecule: "CNC(=O)ON=CC(C)(C)SC"
A) FALSE

Q) Kindly provide the recorded test outcome for the following molecule: "C=CCC1=C(C)[C@@H](OC(=O)[C@@H]2[C@@H](C=C(C)C)C2(C)C)CC1=O"
A) TRUE

Q) Kindly provide the recorded test outcome for the following molecule: "Oc1ccccc1-c1ccccc1"
A) FALSE

Q) Kindly provide the recorded test outcome for the following molecule: "Cc1cc(Cl)ccc1OCC(=O)O"
A) FALSE

Q) Kindly provide the recorded test outcome for the following molecule: "O=C(O)c1nc(Cl)ccc1Cl"
A) FALSE

Q) Kindly provide the recorded test outcome for the following molecule: "CON(C)C(=O)Nc1ccc(Cl)c(Cl)c1"
A) FALSE

Q) Kindly provide the recorded test outcome for the following molecule: "CS/C(C)=N/OC(=O)N(C)SN(C)C(=O)O/N=C(\C)SC"
A) TRUE

Q) Kindly provide the recorded test outcome for the following molecule: CCOC(=O)C(Cl)Cc1cc(-n2nc(C)n(C(F)F)c2=O)c(F)cc1Cl (configuration not stated)
A) FALSE

Q) Kindly provide the recorded test outcome for the following molecule: "COc1nc(C)nc(NC(=O)NS(=O)(=O)c2ccccc2CCC(F)(F)F)n1"
A) FALSE

Q) Kindly provide the recorded test outcome for the following molecule: "CCNc1nc(Cl)nc(NCC)n1"
A) FALSE

Q) Kindly provide the recorded test outcome for the following molecule: "O=C(O)COc1nc(Cl)c(Cl)cc1Cl"
A) FALSE

Q) Kindly provide the recorded test outcome for the following molecule: "CCOP(=S)(OCC)SCn1c(=O)oc2cc(Cl)ccc21"
A) FALSE

---

target: Heat shock factor protein 1 (Homo sapiens) (UniProt Q00613); experiment: ATG_HSE_CIS: Attagene CIS-FACTORIAL HepG2 Assay for human Heat Shock Transcription Factor 1 (HSE) (AID 2282953); settings: HepG2 HSE cis-reporter, Attagene RNA transcription; actives raise or lower the signal
Sequence (Q00613 whole entry, looked up): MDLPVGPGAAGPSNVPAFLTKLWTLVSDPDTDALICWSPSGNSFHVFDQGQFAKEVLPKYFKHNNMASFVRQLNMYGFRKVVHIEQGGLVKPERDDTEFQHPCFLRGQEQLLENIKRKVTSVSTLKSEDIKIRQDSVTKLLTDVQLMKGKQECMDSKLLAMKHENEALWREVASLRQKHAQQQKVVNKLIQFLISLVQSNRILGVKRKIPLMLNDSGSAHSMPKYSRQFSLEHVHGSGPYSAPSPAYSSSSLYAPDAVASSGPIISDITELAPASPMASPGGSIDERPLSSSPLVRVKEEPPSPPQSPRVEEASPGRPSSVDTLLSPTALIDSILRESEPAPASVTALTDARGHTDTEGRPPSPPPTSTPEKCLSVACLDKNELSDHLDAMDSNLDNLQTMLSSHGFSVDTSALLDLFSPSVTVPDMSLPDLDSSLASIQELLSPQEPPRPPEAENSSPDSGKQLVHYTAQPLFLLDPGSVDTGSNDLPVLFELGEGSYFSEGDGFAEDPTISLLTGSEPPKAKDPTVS
The source made the active and inactive calls. Rule for the calls: active = hit-call score of the fitted dose curve at least 0.9, where 1 is the maximum; inactive = score below 0.9.
READOUT TYPE: outcome

Would you please look over these solved cases?
Q) Request the reported outcome associated with "CC1=C(C(=O)Nc2ccccc2)SCCO1"
A) inactive

Q) Request the reported outcome associated with COP(N)(=O)SC (stereo not drawn)
A) inactive

Q) Request the reported outcome associated with "COc1cnc(OC)n2nc(NS(=O)(=O)c3c(OCC(F)F)cccc3C(F)(F)F)nc12"
A) inactive

Q) Request the reported outcome associated with CCOC(=O)C(Cl)Cc1cc(-n2nc(C)n(C(F)F)c2=O)c(F)cc1Cl (stereo not drawn)
A) inactive

Q) Request the reported outcome associated with "Fc1ccc(Oc2ccnc3cc(Cl)cc(Cl)c23)cc1"
A) inactive

Q) Request the reported outcome associated with "Cc1cc(Cl)ccc1OCC(=O)O"
A) inactive

Q) Request the reported outcome associated with "N#Cc1cc(Br)c(O)c(Br)c1"
A) inactive

Q) Request the reported outcome associated with N#CC(CCc1ccc(Cl)cc1)(Cn1cncn1)c1ccccc1 (stereo not drawn)
A) inactive

Q) Request the reported outcome associated with "CCNc1nc(Cl)nc(NCC)n1"
A) inactive

Q) Request the reported outcome associated with "COC(=O)C=C(C)OP(=O)(OC)OC"
A) inactive

Next:
Q) Request the reported outcome associated with "Cc1ccc(-c2c(Cl)nc(C#N)n2S(=O)(=O)N(C)C)cc1"
A) inactive

Q) Request the reported outcome associated with "COP(=S)(OC)Oc1nc(Cl)c(Cl)cc1Cl"
A) inactive

Q) Request the reported outcome associated with "C=CCC1=C(C)[C@@H](OC(=O)[C@@H]2[C@@H](C=C(C)C)C2(C)C)CC1=O"
A) inactive

Q) Request the reported outcome associated with "COc1nc(NC(C)C)nc(NC(C)C)n1"
A) inactive

Q) Request the reported outcome associated with COC(=O)C(C)Oc1ccc(Oc2ccc(Cl)cc2Cl)cc1 (stereo not drawn)
A) inactive

Q) Request the reported outcome associated with CCCC1COC(Cn2cncn2)(c2ccc(Cl)cc2Cl)O1 (stereo not drawn)
A) inactive

Q) Request the reported outcome associated with "CCc1nn(C)c(C(=O)NCc2ccc(C(C)(C)C)cc2)c1Cl"
A) inactive

Q) Request the reported outcome associated with "CCCCNC(=O)n1c(NC(=O)OC)nc2ccccc21"
A) inactive

---

Read-out: Cytochrome P450 3A4 (Homo sapiens)
Assay: LTEA_HepaRG_CYP3A4: Life Technologies and Expression Analysis (LTEA) Assay for CYP3A4 using HepaRG (AID 2283487)
Settings: mRNA level, 48 h; actives raise or lower the signal
Protocol: LTEA_HepaRG is a cell based, multiplexed-readout assay that uses HepaRG, a human liver cell line, with measurements taken at 48 hours after chemical dosing on a 96-well plate.LTEA_HepaRG_CYP3A4 is one of 102 assay component(s) measured in the LTEA HepaRG cell culture assay. It is a marker of NR mediated metabolism.Data from the assay component LTEA_HepaRG_CYP3A4 was analyzed into 1 endpoint. […]
The source made the active and inactive calls. Rule for the calls: active = hit-call score of the fitted dose curve at least 0.9, where 1 is the maximum; inactive = score below 0.9.
READOUT TYPE: AC50

Would you please look over these solved cases?
Q) Request the reported AC50 associated with "Oc1ccccc1-c1ccccc1"
A) inactive

Q) Request the reported AC50 associated with "CCNc1nc(Cl)nc(NCC)n1"
A) inactive

Q) Request the reported AC50 associated with CCOC(=O)C(Cl)Cc1cc(-n2nc(C)n(C(F)F)c2=O)c(F)cc1Cl (configuration not stated)
A) 18.7 µM (active)

Q) Request the reported AC50 associated with "CCCCOC(=O)c1ccccc1C(=O)OCCCC"
A) inactive

Next:
Q) Request the reported AC50 associated with "Fc1ccc(Oc2ccnc3cc(Cl)cc(Cl)c23)cc1"
A) inactive

---

read-out: UDP glucuronosyltransferase (UGT1A1), UGT1A1 (gene 54658); assay: LTEA_HepaRG_UGT1A1: Life Technologies and Expression Analysis (LTEA) Assay for UDP glucuronosyltransferase (UGT1A1) using HepaRG (AID 2283538); conditions: mRNA level, 48 h; actives raise or lower the signal
Active and inactive are the calls of the source. The calls were made as follows: active = hit-call score of the fitted dose curve at least 0.9, where 1 is the maximum; inactive = score below 0.9.
READOUT TYPE: AC50

Would you please look over these solved cases?
Q) Request the reported AC50 associated with "COC(=O)N(OC)c1ccccc1COc1ccn(-c2ccc(Cl)cc2)n1"
A) 82.4 µM (active)

Q) Request the reported AC50 associated with N#Cc1nn(-c2c(Cl)cc(C(F)(F)F)cc2Cl)c(N)c1S(=O)C(F)(F)F (configuration not stated)
A) 37.6 µM (active)

Q) Request the reported AC50 associated with N#CC(CCc1ccc(Cl)cc1)(Cn1cncn1)c1ccccc1 (configuration not stated)
A) 74.9 µM (active)

Q) Request the reported AC50 associated with "CC1=C(C(=O)Nc2ccccc2)SCCO1"
A) 50 µM (active)

Q) Request the reported AC50 associated with Cc1c(F)c(F)c(COC(=O)C2C(/C=C(\Cl)C(F)(F)F)C2(C)C)c(F)c1F (configuration not stated)
A) inactive

Q) Request the reported AC50 associated with "O=C(Nc1ccccc1)Nc1ccnc(Cl)c1"
A) 79.6 µM (active)

Next:
Q) Request the reported AC50 associated with COC(=O)C(C)Oc1ccc(Oc2ccc(Cl)cc2Cl)cc1 (configuration not stated)
A) 20.7 µM (active)

Q) Request the reported AC50 associated with "Fc1ccc(Oc2ccnc3cc(Cl)cc(Cl)c23)cc1"
A) 13.3 µM (active)

Q) Request the reported AC50 associated with "CON(C)C(=O)Nc1ccc(Cl)c(Cl)c1"
A) 32.5 µM (active)

Q) Request the reported AC50 associated with COP(N)(=O)SC (configuration not stated)
A) inactive

Q) Request the reported AC50 associated with "CS/C(C)=N/OC(=O)N(C)SN(C)C(=O)O/N=C(\C)SC"
A) 29.1 µM (active)

Q) Request the reported AC50 associated with CC(Oc1ccc(Cl)cc1Cl)C(=O)O (configuration not stated)
A) inactive

Taken from PubChem BioAssay (EPA / NIEHS).
